// data source = patent US20260232732A1

Target: T1, biotin-peptide YCEKNNVRQF (human)
T1 peptide: Biotin-YCEKNNVRQF
Test: ELISA biotin-peptide; scFv 10 ug/mL; repI
Where no end group is shown, it is not given here. The star is where a group is joined. Biotin = O=C1N[C@H]2[C@H](CS[C@H]2CCCCC(=O)*)N1
The following binders are listed with their measured OD450 values.
Give just the number in OD; leave the unit off.

See these solved cases before continuing.
CCR9_HUM2 scFv (humanized anti-CCR9 scFv, SEQ ID NO: 17 with C-terminal 6xHis tag) (scFv) scFv: QVQLVQSGAEVKKPGASVKVSCTASGYSFTDYIIYWVKQAHGQSLEWMGYIDPNNYNTRYSQKFQGKVTITVDKSSTSAYMELNSLTSDDTAVYYCARDVYWGQGTTVTVSSGGGGSGGGGSGGGGSGGGGSDVVMTQTPLSLSVTPGQPASISCRSSQSLVHSNGKTYLQWYLQKPGQSPKLLIYKVSNRFSGVPDRFSGSGSGTDFTLKISRVEAEDVGVYFCAQSTHVWTFGGGTKVEIKRAHHHHHH ... 0.07
Comparative antibody 2 (Comp-2) scFv, 243LO326 (VH SEQ ID NO: 51 and VL SEQ ID NO: 52 of WO 2022/195028 A2), His-tagged (scFv) scFv: QVQLVQSGAEVKKPGASVKVSCKASGYTFTSYWMHWVRQAPGQGLEWIGVIYPGNSDTRYNQKFKGRVTITRDTSASTAYMELSSLRSEDTAVYYCTRDYYSNYVYYYAMDYWGQGTTVTVSSGGGGSGGGGSGGGGSGGGGSDIVMTQTPLSLPVTPGEPASISCRSSQSLVHPNRNTYLHWYLQKPGQSPQLLIYKVSNRFSGVPDRFSGSGSGTDFTLKISRVEAEDVGVYYCSQSTHVPWTFGQGTKLEIKHHHHHH ... 0.09
Comparative antibody 3 (Comp-3) scFv, SR_92R (Somovilla-Crespo et al. 2018), His-tagged (scFv) scFv: EVKLEESGGGLVQPGGSMKLSCVASGFTFNKFWMNWVRQSPEKGLEWVAEIRLKSNNYATHYAESVKGRFTISRDDSKSSVYLQMNNLRAEDTGIYYCASDGWFAYWGQGTLVTVSAGGGGSGGGGSGGGGSGGGGSDVVMTQTPLSLPVSLGDQASISCRSSQSLVHSNGNTYLNWCLQRPGQSPKSLIYKVSNRFSGVPDRFSGSGSGTDFTLKISRVEAEDLGVYFCSQSTHFPRTFGGGTKLEIKRHHHHHH ... 0.11

Shift focus to the following entry.
(Q) Find the measured OD450 of Comparative antibody 1 (Comp-1) scFv, SEQ ID NO: 10 from WO2023/037125 A1, His-tagged (scFv) scFv: QVQLKESGPGLVQPSQTLSLTCTVSGFSVASYDMHWVRLPPGKGLEWMGIIWANGNTHYNSGLKSRLSISRDTSKSQVFLKMNSLQTEDTAIYFCTRGGFAYWGQGTLVTVSSGGGGSGGGGSGGGGSGGGGSDVVMTQTPVSLSVSLGGQVSISCRSSQSLVHNNGNTYLSWYLQKPGQSPQLLIYKVSNRFSGVSDRFSGSGSGTDFTLKISRVEPDDLGVYYCGQGTQYPTFGGGTKLELKHHHHHH and report it.
(A) 0.06
